FYI, the data here is from paper PMC13580404.

- targetDesc: T1, RPN13 Pru (1–150), reduced (UniProt Q16186 1-150)
- T1 construct: also called RPN13 (1–150); redu RPN13^Pru; source: E. coli BL21(DE3) pLysS, purified (Talon resin, PreScission cleavage, Superdex 75); not shown: His6, N-terminal, cleaved
- T1 sequence (Q16186 1-150): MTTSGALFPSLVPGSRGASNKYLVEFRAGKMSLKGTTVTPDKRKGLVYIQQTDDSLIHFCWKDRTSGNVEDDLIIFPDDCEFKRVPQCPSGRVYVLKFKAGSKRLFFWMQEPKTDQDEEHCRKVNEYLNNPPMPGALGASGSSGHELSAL
- testMethodNotes: ITC; RPN13 Pru in the cell (15.6, 20.57 or 16 μM), RPN2 (940–953) in the syringe; 25°C; 20 mM sodium phosphate, 50 mM NaCl, pH 6.0, with 10 mM βME (reducing) or without (non-reducing); one-site fit
- conditionSet: both partners purified
attributeMeasured: Kd (nM)

QEPEPPEPFEYIDD (peptide, UniProt Q99460 940-953, looked up, Eluted from the resin as GST-RPN2 (940–953); also called RPN2 peptide; GST-RPN2 (940–953); source: E. coli BL21(DE3) pLysS, purified (glutathione resin, eluted with reduced glutathione, Superdex 75)) [RPN2 (940–953)]: 12.4
